molecular target: Induced myeloid leukemia cell differentiation protein Mcl-1 (Homo sapiens, UniProt Q07820); type: functional
Sequence (Q07820 whole entry): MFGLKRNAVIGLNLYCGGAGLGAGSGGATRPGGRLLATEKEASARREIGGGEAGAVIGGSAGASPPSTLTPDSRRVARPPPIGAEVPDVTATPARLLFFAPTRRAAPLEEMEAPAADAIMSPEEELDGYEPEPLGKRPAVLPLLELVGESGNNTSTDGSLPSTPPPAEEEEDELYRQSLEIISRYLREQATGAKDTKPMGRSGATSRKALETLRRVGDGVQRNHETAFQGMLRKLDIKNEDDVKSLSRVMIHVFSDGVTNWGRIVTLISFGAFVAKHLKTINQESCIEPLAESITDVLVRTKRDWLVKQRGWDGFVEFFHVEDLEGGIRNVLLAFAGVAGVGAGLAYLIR
Activity calls are given as the source filed them.

[
  {
    "compound": "Cn1cc(C(=O)N/N=C/c2ccc([N+](=O)[O-])cc2)c2ccccc21",
    "IC50": "1.94 µM (active)"
  },
  {
    "compound": "CCN=c1ccc(Br)cc(C(=O)/C=C/c2ccc(Cl)cc2Cl)c1O",
    "IC50": "3.71 µM (active)"
  },
  {
    "compound": "c1ccc(CNC2=NN=C(c3cc4ccccc4o3)CS2)cc1",
    "IC50": "2.66 µM (not active)"
  },
  {
    "compound": "O=C(Nc1ccc(N2CCOCC2)cc1)Nc1ccc2nc(-c3ccco3)c(-c3ccco3)nc2c1",
    "IC50": "0.894 µM (active)"
  },
  {
    "compound": "CCCCCCCCCCCCCCCC[n+]1cccc2ccccc21",
    "IC50": "4.32 µM (active)"
  },
  {
    "compound": "Oc1cc2c(cc1O)C1c3ccc(O)c(O)c3OCC1(O)C2 (stereo unspecified) [HAEMATOXYLIN]",
    "IC50": "3.44 µM (active)"
  }
]
